The reported measurements were obtained from PubChem BioAssay (NCI).

# System: PC-3 prostate
# test protocol: NCI tumour cell line growth inhibition, 48 h
Measured GI50 by item

Previously resolved entries follow.
item smiles	GI50
N#C/C(=C1C=C/C(=N/O)C(Cl)=C/1)c1ccc(Cl)cc1	4.99 µM
O=C(Nc1ccc(F)cc1F)c1cc(F)ccc1O	2.61 µM
O=C(/C=C\Sc1ccccn1)c1cccc(Br)c1	7.68 µM
CCN(Cc1ccccn1)c1ccc(CO)c(Cl)c1	> 89.8 µM
CC(C)(C)C(=O)OCCNc1nc(-c2ccccc2)nc2ccccc12	15.6 µM
COc1cc2c(cc1O)CC[C@@H]1[C@@H]2CC[C@]2(C)[C@@H](OCCCN(C)C)CC[C@@H]12	0.183 µM

## Input // query GI50 value for entry COc1ccc(-c2nc3c(-c4ccccc4)nc(-c4ccccc4)cn3c2-c2ccc(OC)cc2)cc1
## Output > 100 µM

## Input Lookup Cc1ccc2cc3c(cc(C)c4ccccc43)c3c2c1CC3
## Output > 100 µM

## Input Lookup Nc1nc(/C=C\c2ccc([N+](=O)[O-])s2)nc(N2CCOCC2)n1
## Output 11.5 µM

## Input Lookup CC(C)OP(=O)(OC(C)C)c1ncc(-c2ccc(C(F)(F)F)cc2)c(NC2CCCCCC2)n1
## Output 9.51 µM

* * *

# Test system: NCI-H226 lung
# test protocol: NCI tumour cell line growth inhibition, 48 h
Measured TGI by item
Give the value, in units of µM, as a plain number.

compound	test result
Cc1ccc(-c2nc3nc(-c4ccc(Br)cc4)nc(N4CCCNCC4)c3o2)cc1	38.9
O=S(=O)(Nc1ccc(Cl)c(F)c1)c1ccc(-c2cnc(C3CC3)o2)cc1	16.5
CCc1ccccc1NC(=O)C1=C(C)NC(C)=C(C(=O)Nc2c(CC)cccc2CC)C1c1ccc2c(c1)OCO2 (stereo not given)	43.4
NC(=O)c1c(Br)n(C2OC(CO)C(O)C2O)c2ncnc(N)c12 (stereo not given)	57.6

## Input // query TGI value for entry Clc1ccccc1CN1COc2c(cc(Cl)c3cccnc23)C1
## Output 4.09

* * *

# Tested on: SNB-19 CNS
# test protocol: NCI tumour cell line growth inhibition, 48 h
measure: TGI

molecule	test result
Oc1ccc(C=NCC2CCCN3CCCCC23)cc1 (stereo not given)	63.3 µM
Cn1cc/c(=N\N=c2/ccn(C)c3ccccc23)c2ccccc21	36.3 µM
Nc1nc2c(c(=O)[nH]1)CN(CCCN1CCOCC1)CN2	> 100 µM
Cc1ccc(C(=O)CC(O)(C(F)(F)F)C(F)(F)F)cc1[N+](=O)[O-]	22.6 µM
O=S(=O)(Nc1ccc(Cl)c(F)c1)c1ccc(-c2cnc(C3CC3)o2)cc1	14.8 µM

## Input // query TGI value for entry CN(C)CCCN1N=Nc2cccc3cccc1c23
## Output > 100 µM

## Input Lookup O=C1OCC(C#Cc2ccccc2)=C1Br
## Output > 68.8 µM

## Input Lookup CC(CO)CCNc1ncnc2c1ncn2CCC#N (stereo not given)
## Output > 100 µM

## Input Lookup CC1NOC(=O)C1N=Nc1ccccc1Br (stereo not given)
## Output > 100 µM

## Input Lookup C=CC1(c2ccc(-c3ccccc3)cc2)OCCO1
## Output > 100 µM

## Input Lookup Clc1ccccc1CN1COc2c(cc(Cl)c3cccnc23)C1
## Output 17.2 µM

## Input Lookup COc1ccc(/C=c2/s/c(=C(\C#N)c3nc4ccccc4[nH]3)n(-c3ccccc3)c2=O)cc1
## Output > 100 µM
